Value source: paper PMC8041433

# STUDY_SYSTEM: recombinant human AChE (Homo sapiens)
# ASSAY_COMMENT: biochemical
# RUN_PARAMETERS: IC50 (uM)
Note to self: use criterion met only for IC50 readings below 40 µM; a reading exactly at 40 µM still gets criterion not met.

{"COMPOUND": "CCOP(=S)(OCC)OC(Cl)C(Cl)(Cl)Cl (stereo not drawn)", "GROUP_LABEL": "criterion met"}
{"COMPOUND": "CCOP(=S)(Oc1cnc(C(C)(C)C)nc1)OC(C)C (stereo not drawn)", "GROUP_LABEL": "criterion met"}
{"COMPOUND": "CCN(C(=O)c1cc(C)cc(OC[C@H](C)Nc2ccncc2)c1)C(C)C.Cc1ccc(S(=O)(=O)O)cc1 [GW473178E methyl benzene sulfonic acid]", "GROUP_LABEL": "criterion not met"}
{"COMPOUND": "O=C(O)/C=C/C(=O)O.O=C1c2ccccc2C(=O)N1CCc1noc(-c2ccc(CN3CCCCCC3)s2)n1", "GROUP_LABEL": "criterion not met"}
{"COMPOUND": "CCCSP(=O)(OCC)Oc1ccc(Br)cc1Cl (stereo not drawn)", "GROUP_LABEL": "criterion met"}
{"COMPOUND": "O=C(O)CC[N+](=O)[O-]", "GROUP_LABEL": "criterion not met"}
{"COMPOUND": "CCOC(=O)C(SP(=S)(OC)OC)c1ccccc1 (stereo not drawn) [Phenthoate]", "GROUP_LABEL": "criterion not met"}
{"COMPOUND": "COP(N)(=S)Oc1ccccc1C(=O)OC(C)C (stereo not drawn)", "GROUP_LABEL": "criterion met"}

###

# STUDY_SYSTEM: recombinant human AChE (Homo sapiens, UniProt P22303)
# Sequence (P22303 32-614): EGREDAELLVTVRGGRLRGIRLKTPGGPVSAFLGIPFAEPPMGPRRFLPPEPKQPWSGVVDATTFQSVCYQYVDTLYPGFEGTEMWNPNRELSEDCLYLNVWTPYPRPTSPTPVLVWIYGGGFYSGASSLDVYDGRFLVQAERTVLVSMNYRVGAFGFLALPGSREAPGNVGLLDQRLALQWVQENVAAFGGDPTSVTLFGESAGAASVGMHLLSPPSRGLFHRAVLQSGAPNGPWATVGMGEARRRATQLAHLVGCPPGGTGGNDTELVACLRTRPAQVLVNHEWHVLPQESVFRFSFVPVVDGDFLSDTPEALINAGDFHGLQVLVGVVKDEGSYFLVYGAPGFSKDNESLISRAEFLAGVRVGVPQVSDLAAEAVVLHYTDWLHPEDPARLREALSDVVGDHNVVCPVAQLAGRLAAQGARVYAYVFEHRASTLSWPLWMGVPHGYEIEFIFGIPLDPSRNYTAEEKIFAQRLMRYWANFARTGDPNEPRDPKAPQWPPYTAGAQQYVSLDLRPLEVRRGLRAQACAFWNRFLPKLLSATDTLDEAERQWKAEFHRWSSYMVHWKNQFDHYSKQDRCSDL
# ASSAY_COMMENT: biochemical
# RUN_PARAMETERS: read-out: IC50
pIC50: −log10 of the molar value.

{"COMPOUND": "CCOC(=O)COc1ccc2c(C)c(CCN(CC)CC)c(=O)oc2c1Cl.Cl [Cloricromen hydrochloride]", "pIC50": 4.81}
{"COMPOUND": "CN1CCCN=C1/C=C/c1cccs1.O=C(O)C(O)C(O)C(=O)O [Pyrantel tartrate]", "pIC50": 4.41}
{"COMPOUND": "CCN=C1C=CC(=C(c2ccc(N(CC)CC)cc2)c2ccc(N(CC)CC)cc2)c2ccccc21.Cl", "pIC50": 4.70}
{"COMPOUND": "O=C1c2c(O)ccc(Nc3ccc(CCO)cc3)c2C(=O)c2c([N+](=O)[O-])ccc(O)c21", "pIC50": 4.70}
{"COMPOUND": "CCCCCCCCCC[N+](C)(CCCCCCCCCC)CCC[Si](OC)(OC)OC.[Cl-] [Disiquonium chloride]", "pIC50": 4.10}
{"COMPOUND": "CCN1C(=CC=Cc2sc3ccccc3[n+]2CC)Sc2ccccc21.[I-] [3,3'-Diethylthiacarbocyanine iodide]", "pIC50": 4.72}
{"COMPOUND": "O=C(O)/C=C\\C(=O)O.O=C(O)/C=C\\C(=O)O.c1cc(CN2CCCCC2)cc(OCCCNc2nc3ccccc3s2)c1 [Zolantidine dimaleate]", "pIC50": 4.56}
{"COMPOUND": "CCCCSP(=O)(SCCCC)SCCCC", "pIC50": 4.45}
{"COMPOUND": "CCOP(=S)(Oc1cnc(C(C)(C)C)nc1)OC(C)C (centres unmarked)", "pIC50": 4.20}
{"COMPOUND": "Nc1ccc(N)c(Cl)c1.O=S(=O)(O)O [2-Chloro-1,4-diaminobenzene sulfate]", "pIC50": 5.05}
{"COMPOUND": "O=S(=O)([O-])SSS(=O)(=O)[O-].[K+].[K+] [Potassium tetrathionate]", "pIC50": 4.15}
{"COMPOUND": "Cc1ccc2c(c1)OCC(=O)CO2 [7-Methyl-2H-1,5-benzodioxepin-3(4H)-one]", "pIC50": 4.10}
{"COMPOUND": "C[C@H]1[C@@H]2Cc3ccc(O)cc3[C@@]1(C)CCN2C.C[C@H]1[C@@H]2Cc3ccc(O)cc3[C@@]1(C)CCN2C.O=C(O)/C=C/C(=O)O [(+)-Metazocine fumarate (2:1)]", "pIC50": 4.47}
{"COMPOUND": "CN(C)c1ccc(C(=C2C=CC(=[N+](C)C)C=C2)c2ccc(N(C)C)cc2)cc1.[Cl-] [Methylrosaniline chloride]", "pIC50": 4.51}
